Settings: buffer; pH 7.4; 200.0 µM
TEST_READOUT: solubility kinetic

- MOLECULE: "O=C(NCCCN1CCOCC1)C(=O)NCCc1ccccc1"
  solubility kinetic: "> 47.9 µg/mL"
- MOLECULE: "CC(CC(=O)NCc1ccc(F)cc1)c1ccccc1 (stereo not given)"
  solubility kinetic: "> 40.7 µg/mL"
- MOLECULE: "FC(F)(F)c1cnc(COc2ccc(Cl)cc2Cl)c(Cl)c1"
  solubility kinetic: "< 0.8 µg/mL"
- MOLECULE: "Cc1ccccc1CC(=O)Nc1cccnc1"
  solubility kinetic: "> 33.9 µg/mL"

Alright, here's another molecule for you.
[in] Given O=C(NCCCNC(=O)c1ccccc1)c1ccccc1 , state its recorded solubility kinetic.
[out] > 42.4 µg/mL
